# target system: BRK kinase domain (Homo sapiens, UniProt Q13882, C433T)
# Sequence (Q13882 185-446 C433T): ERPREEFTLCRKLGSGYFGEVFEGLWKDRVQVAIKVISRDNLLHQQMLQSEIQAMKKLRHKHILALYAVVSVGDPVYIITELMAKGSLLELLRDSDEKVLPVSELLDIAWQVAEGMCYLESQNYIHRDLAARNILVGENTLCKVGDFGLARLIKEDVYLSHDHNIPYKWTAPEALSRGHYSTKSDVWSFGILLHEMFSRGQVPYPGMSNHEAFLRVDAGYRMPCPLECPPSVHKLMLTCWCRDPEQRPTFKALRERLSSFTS
# assay summary: ADP-Glo kinase assay, BRK
pIC50: −log10 of the molar value.

smiles text	target system	pIC50
CC(C)S(=O)(=O)c1ccc2nccc(Nc3ccc4sc(C5CCCC5)nc4c3)c2c1.Cl	BRK kinase domain (Homo sapiens, UniProt Q13882, C433T)	6.61

---

# Test system: caspase 3 activity in L929 cell lysates
# assay summary: Caspase 3 activity in L929 cell lysates
# Assay type: cell-based, mouse
Each entry below lists one item and its recorded concentration at which caspase 3 is activated value.
recorded endpoint: concentration at which caspase 3 is activated

compound	observed result
CC(C)S(=O)(=O)c1cc2c(Nc3ccc4sc(C5CCCC5)nc4c3)ccnc2cc1OCCO	> 50 µM
CC(C)S(=O)(=O)c1ccc2nccc(Nc3ccc4sc(C5CCCC5)nc4c3)c2c1.Cl	> 50 µM
CC[C@@H](C)c1nc2cc(Nc3ccnc4ccc(S(=O)(=O)C(C)C)cc34)ccc2s1.Cl	> 50 µM
CC(C)S(=O)(=O)c1ccc2nccc(Nc3ccc4scnc4c3)c2c1 [GSK'872, reference compound]	5 µM

---

# Tested on: caspase 3 and caspase 8 cleavage in L929 cells
# assay summary: Western blot of caspase 3 and caspase 8 cleavage in L929 cells
# Type: cell-based, mouse
# condition parameters: L929, 3 hours
recorded endpoint: concentration at which cleavage of caspases 8 and 3 is seen (Western blot)

molecule	observed result
CC(C)(C)n1nc(-c2ccc3sc(C4CCCC4)nc3c2)c2c(N)ncnc21	> 100 µM
Cl.O=S1(=O)C=C(C2CC2)c2cc3nccc(Nc4ccc5sc(C6CCCC6)nc5c4)c3cc21	> 10 µM
CCC(C)c1nc2cc(-c3nn(C(C)(C)C)c4ncnc(N)c34)ccc2s1 (centres unmarked)	> 100 µM
Cl.O=S1(=O)C=C(C2CC2)c2cc3nccc(Nc4ccc5scnc5c4)c3cc21 [Zharp-99, reference compound]	0.1 µM
N#Cc1c(Oc2ccc(F)c(NC(=O)Cc3cccc(C(F)(F)F)c3)c2)ccc2nc(NC(=O)C3CC3)sc12 [TAK-632, reference compound]	> 100 µM
